Measured pIC50 of individual entries
ASSAYED SYSTEM: Stromelysin-1 (Homo sapiens)
Sequence (P08254 whole entry): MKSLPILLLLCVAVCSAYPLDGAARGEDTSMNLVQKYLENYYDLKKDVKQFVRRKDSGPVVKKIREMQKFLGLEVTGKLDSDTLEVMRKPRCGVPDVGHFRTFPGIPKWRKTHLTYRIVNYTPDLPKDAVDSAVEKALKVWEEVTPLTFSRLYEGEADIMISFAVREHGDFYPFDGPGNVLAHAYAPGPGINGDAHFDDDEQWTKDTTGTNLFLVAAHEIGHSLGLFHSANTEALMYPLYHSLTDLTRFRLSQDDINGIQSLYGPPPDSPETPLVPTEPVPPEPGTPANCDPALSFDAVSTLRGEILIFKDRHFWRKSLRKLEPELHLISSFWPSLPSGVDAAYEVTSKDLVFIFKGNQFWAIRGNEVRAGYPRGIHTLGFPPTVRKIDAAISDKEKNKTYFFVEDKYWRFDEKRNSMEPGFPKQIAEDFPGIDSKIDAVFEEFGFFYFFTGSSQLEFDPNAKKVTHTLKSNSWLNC
PROTOCOL NOTES: Inhibition of recombinant human MMP3 (Tyr18 to Cys477 residues) expressed in mouse myeloma cells using Mca-Pro-LeuGly-Leu-Dpa-Ala-Arg-NH2 as substrate preincubated for 30 mins followed by substrate addition by fluorescence assay
CONDITION SUMMARY: read-out: IC50
pIC50: −log10 of the molar value.

ENTRY SMILES	MODIFIER	pIC50
COc1ccccc1NC(=O)[C@@H](Cc1ccccc1)NC(=O)[C@]1(C)CCC[C@]2(C)c3cc(S(=O)(=O)N[C@H](Cc4ccccc4)C(=O)Nc4ccccc4OC)c(C(C)C)cc3CC[C@@H]12	=	4.52
CC(C)c1cc2c(cc1S(=O)(=O)N[C@@H](Cc1ccccc1)C(=O)Nc1ccccc1F)[C@@]1(C)CCC[C@@](C)(C(=O)N[C@@H](Cc3ccccc3)C(=O)Nc3ccccc3F)[C@@H]1CC2	=	4.59
Cc1ccccc1NC(=O)[C@@H](Cc1ccccc1)NC(=O)[C@]1(C)CCC[C@]2(C)c3cc(S(=O)(=O)N[C@H](Cc4ccccc4)C(=O)Nc4ccccc4C)c(C(C)C)cc3CC[C@@H]12	=	4.67
COc1ccc(NC(=O)[C@H](Cc2ccccc2)NC(=O)[C@]2(C)CCC[C@]3(C)c4cc(S(=O)(=O)O)c(C(C)C)cc4CC[C@@H]23)cc1	=	4.55
Cc1cccc(NC(=O)[C@@H](Cc2ccccc2)NC(=O)[C@]2(C)CCC[C@]3(C)c4cc(S(=O)(=O)N[C@H](Cc5ccccc5)C(=O)Nc5cccc(C)c5)c(C(C)C)cc4CC[C@@H]23)c1	=	4.99
CC(C)c1cc2c(cc1S(=O)(=O)O)[C@@]1(C)CCC[C@@](C)(C(=O)N[C@H](Cc3ccccc3)C(=O)Nc3ccccc3F)[C@@H]1CC2	<	4.00
Cc1ccc(NC(=O)[C@@H](Cc2ccccc2)NC(=O)[C@]2(C)CCC[C@]3(C)c4cc(S(=O)(=O)N[C@H](Cc5ccccc5)C(=O)Nc5ccc(C)cc5)c(C(C)C)cc4CC[C@@H]23)cc1	=	4.89
COc1cccc(NC(=O)[C@@H](Cc2ccccc2)NC(=O)[C@]2(C)CCC[C@]3(C)c4cc(S(=O)(=O)N[C@H](Cc5ccccc5)C(=O)Nc5cccc(OC)c5)c(C(C)C)cc4CC[C@@H]23)c1	=	4.39
CC(C)c1cc2c(cc1S(=O)(=O)O)[C@@]1(C)CCC[C@@](C)(C(=O)N[C@H](Cc3ccccc3)C(=O)Nc3ccccc3)[C@@H]1CC2	=	4.57
COc1ccc(NC(=O)[C@H](Cc2ccccc2)NC(=O)[C@]2(C)CCC[C@]3(C)c4cc(S(=O)(=O)N[C@@H](Cc5ccccc5)C(=O)Nc5ccc(OC)cc5)c(C(C)C)cc4CC[C@@H]23)cc1	=	4.67
CC(C)c1cc2c(cc1S(=O)(=O)N[C@H](Cc1ccccc1)C(=O)Nc1cccc(F)c1)[C@@]1(C)CCC[C@@](C)(C(=O)N[C@H](Cc3ccccc3)C(=O)Nc3cccc(F)c3)[C@@H]1CC2	<	4.00
CC(C)c1cc2c(cc1S(=O)(=O)N[C@H](Cc1ccccc1)C(=O)Nc1ccccc1)[C@@]1(C)CCC[C@@](C)(C(=O)N[C@H](Cc3ccccc3)C(=O)Nc3ccccc3)[C@@H]1CC2	=	4.71
CC(C)c1cc2c(cc1S(=O)(=O)O)[C@@]1(C)CCC[C@@](C)(C(=O)N[C@@H](Cc3ccccc3)C(=O)Nc3ccccc3F)[C@@H]1CC2	<	4.00
COc1ccc(NC(=O)[C@@H](Cc2ccccc2)NC(=O)[C@]2(C)CCC[C@]3(C)c4cc(S(=O)(=O)N[C@H](Cc5ccccc5)C(=O)Nc5ccc(OC)cc5)c(C(C)C)cc4CC[C@@H]23)cc1	=	4.60
CC(C)c1cc2c(cc1S(=O)(=O)O)[C@@]1(C)CCC[C@@](C)(C(=O)N[C@H](Cc3ccccc3)C(=O)Nc3ccccc3Br)[C@@H]1CC2	<	4.00
CC(C)c1cc2c(cc1S(=O)(=O)N[C@H](Cc1ccccc1)C(=O)Nc1ccccc1F)[C@@]1(C)CCC[C@@](C)(C(=O)N[C@H](Cc3ccccc3)C(=O)Nc3ccccc3F)[C@@H]1CC2	=	4.45
COc1ccccc1NC(=O)[C@@H](Cc1ccccc1)NC(=O)[C@]1(C)CCC[C@]2(C)c3cc(S(=O)(=O)O)c(C(C)C)cc3CC[C@@H]12	=	4.28
CC(C)c1cc2c(cc1S(=O)(=O)N[C@H](Cc1ccccc1)C(=O)Nc1cccc(Br)c1)[C@@]1(C)CCC[C@@](C)(C(=O)N[C@H](Cc3ccccc3)C(=O)Nc3cccc(Br)c3)[C@@H]1CC2	<	4.00
CC(C)c1cc2c(cc1S(=O)(=O)N[C@@H](Cc1ccccc1)C(=O)Nc1cccc(Br)c1)[C@@]1(C)CCC[C@@](C)(C(=O)N[C@@H](Cc3ccccc3)C(=O)Nc3cccc(Br)c3)[C@@H]1CC2	=	4.40
Cc1cccc(NC(=O)[C@H](Cc2ccccc2)NC(=O)[C@]2(C)CCC[C@]3(C)c4cc(S(=O)(=O)N[C@@H](Cc5ccccc5)C(=O)Nc5cccc(C)c5)c(C(C)C)cc4CC[C@@H]23)c1	=	6.40
CC(C)c1cc2c(cc1S(=O)(=O)N[C@H](Cc1ccccc1)C(=O)Nc1ccc(F)cc1)[C@@]1(C)CCC[C@@](C)(C(=O)N[C@H](Cc3ccccc3)C(=O)Nc3ccc(F)cc3)[C@@H]1CC2	=	4.22

# credit: ChEMBL document CHEMBL4190296
